Measured values drawn from PubChem BioAssay AID1963838 for this set.

Test system: 855422-203-R-J1-PDC complex spheroid viability
Assay: Anticancer human tumor 855422-203-R-J1-PDC patient-derived bladder carcinoma cell line growth inhibition [POLQ]
Details: second compound 10 µM; first compound 0.0316 µM; hits give low values
Experimental: Multicellular complex tumor spheroid response to Polymerase (POL) inhibitors (novobiocin, ART-558, RP6685) in combination with a variety of drugs and investigational agents in selected tumor cell lines The POL inhibitors (novobiocin, ART-558, and RP6685) were evaluated both individually and in combination with standard of care and investigational anticancer small molecules within a complex spheroid model of solid tumors. . […]
readout: viability, T/C (%)
Hi! Could you send only the number? It should be in %, unit omitted.

Find the measured viability, T/C of CNCc1ccc(-c2[nH]c3cc(F)cc4c3c2CCNC4=O)cc1 + COC1C(OC(N)=O)C(O)C(Oc2ccc3c(O)c(NC(=O)c4ccc(O)c(CC=C(C)C)c4)c(=O)oc3c2C)OC1(C)C and report it. 110

Consider the compound CNCc1ccc(-c2[nH]c3cc(F)cc4c3c2CCNC4=O)cc1 + Cc1cccc(N(C)C(=O)C2C(O)CCN2c2nc(C)cc(C(F)(F)F)c2C#N)c1 . State its measured viability, T/C. 110

Recall and state the measured viability, T/C for CCc1c2c(nc3ccc(O)cc13)-c1cc3c(c(=O)n1C2)COC(=O)[C@]3(O)CC + COC1C(OC(N)=O)C(O)C(Oc2ccc3c(O)c(NC(=O)c4ccc(O)c(CC=C(C)C)c4)c(=O)oc3c2C)OC1(C)C . 7.82

Specify reported viability, T/C for the compound shown: Nc1ccn(C2OC(CO)C(O)C2(F)F)c(=O)n1 (stereo unspecified) + COC1C(OC(N)=O)C(O)C(Oc2ccc3c(O)c(NC(=O)c4ccc(O)c(CC=C(C)C)c4)c(=O)oc3c2C)OC1(C)C 72.8

Please give measured viability, T/C of the following entry: CCc1c2c(nc3ccc(O)cc13)-c1cc3c(c(=O)n1C2)COC(=O)[C@]3(O)CC + Cc1cccc(N(C)C(=O)C2C(O)CCN2c2nc(C)cc(C(F)(F)F)c2C#N)c1 7.06

Note down viability, T/C recorded for O=c1[nH]cc(F)c(=O)[nH]1 + Cc1cccc(N(C)C(=O)C2C(O)CCN2c2nc(C)cc(C(F)(F)F)c2C#N)c1 109

###

tested on: 855422-203-R-J1-PDC complex spheroid viability; assay: Anticancer human tumor 855422-203-R-J1-PDC cell line growth inhibition [POLQ]; settings: second compound 10 µM; first compound 0.0316 µM; hits give low values;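 note: spheroids exposed to compounds for seven days before readout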
I'd appreciate it if you could supply viability, T/C values for the items below.
Express your answer in %, writing the number without its unit.

Identify measured viability, T/C associated with O=C(c1cc(Cc2n[nH]c(=O)c3ccccc23)ccc1F)N1CCN(C(=O)C2CC2)CC1 + COC1C(OC(N)=O)C(O)C(Oc2ccc3c(O)c(NC(=O)c4ccc(O)c(CC=C(C)C)c4)c(=O)oc3c2C)OC1(C)C 104

Specify measured viability, T/C for COc1cccc(OCCCN)c1-c1cc(Nc2cnc(C#N)cn2)n[nH]1 + COC1C(OC(N)=O)C(O)C(Oc2ccc3c(O)c(NC(=O)c4ccc(O)c(CC=C(C)C)c4)c(=O)oc3c2C)OC1(C)C . 15

Specify reported viability, T/C for the compound shown: COc1ccc([C@@H](O)c2cc(-c3ncnc4cc(N5CCOCC5)ccc34)c(F)cc2Cl)nn1 + COC1C(OC(N)=O)C(O)C(Oc2ccc3c(O)c(NC(=O)c4ccc(O)c(CC=C(C)C)c4)c(=O)oc3c2C)OC1(C)C 121

Assign viability, T/C to the following record: Nc1ccn(C2OC(CO)C(O)C2(F)F)c(=O)n1 (stereo unspecified) + Cc1cccc(N(C)C(=O)C2C(O)CCN2c2nc(C)cc(C(F)(F)F)c2C#N)c1 84.5

Name the recorded viability, T/C of the item CC1COCCN1c1cc(-c2ccnn2C)c2ccnc(-c3ccn[nH]3)c2n1 (stereo unspecified) + Nc1ccc(C#CCN(C(=O)Cc2ncc(C(F)(F)F)cc2C(F)(F)F)c2ccc(F)cc2)nn1 in your answer. 119

Hello, please tell me recorded viability, T/C for this one: CC[C@@]1(O)C(=O)OCc2c1cc1n(c2=O)Cc2cc3c(CN(C)C)c(O)ccc3nc2-1 + Nc1ccc(C#CCN(C(=O)Cc2ncc(C(F)(F)F)cc2C(F)(F)F)c2ccc(F)cc2)nn1 95.3

Using the record for Cn1ncnc1[C@H]1c2n[nH]c(=O)c3cc(F)cc(c23)N[C@@H]1c1ccc(F)cc1 + Nc1ccc(C#CCN(C(=O)Cc2ncc(C(F)(F)F)cc2C(F)(F)F)c2ccc(F)cc2)nn1 , state its measured viability, T/C. 102

Give reported viability, T/C value for O=c1[nH]cc(F)c(=O)[nH]1 + COC1C(OC(N)=O)C(O)C(Oc2ccc3c(O)c(NC(=O)c4ccc(O)c(CC=C(C)C)c4)c(=O)oc3c2C)OC1(C)C 117

For the compound CC1COCCN1c1cc(C2(O)CC3CCC(C2)O3)c2cnn(-c3ccn[nH]3)c2n1 (stereo unspecified) + Cc1cccc(N(C)C(=O)C2C(O)CCN2c2nc(C)cc(C(F)(F)F)c2C#N)c1 , give its reported viability, T/C. 83.4

Please give measured viability, T/C of the following entry: CCc1c2c(nc3ccc(O)cc13)-c1cc3c(c(=O)n1C2)COC(=O)[C@]3(O)CC + Nc1ccc(C#CCN(C(=O)Cc2ncc(C(F)(F)F)cc2C(F)(F)F)c2ccc(F)cc2)nn1 14.3

Consider the compound COc1cccc2c1C(=O)c1c(O)c3c(c(O)c1C2=O)CC(O)(C(=O)CO)CC3OC1CC(N)C(O)C(C)O1 (stereo unspecified) + Nc1ccc(C#CCN(C(=O)Cc2ncc(C(F)(F)F)cc2C(F)(F)F)c2ccc(F)cc2)nn1 . State its measured viability, T/C. 21.4

Identify measured viability, T/C associated with CC(C)n1c(=O)n(C)c2cnc3cc(F)c(-c4ccc(OCCCN5CCCCC5)nc4)cc3c21 + Cc1cccc(N(C)C(=O)C2C(O)CCN2c2nc(C)cc(C(F)(F)F)c2C#N)c1 95.9

For the compound CC1COCCN1c1cc(C2(S(C)(=N)=O)CC2)nc(-c2ccnc3[nH]ccc23)n1 (stereo unspecified) + COC1C(OC(N)=O)C(O)C(Oc2ccc3c(O)c(NC(=O)c4ccc(O)c(CC=C(C)C)c4)c(=O)oc3c2C)OC1(C)C , report viability, T/C. 114

Specify measured viability, T/C for COc1cc(C2c3cc4c(cc3C(OC3OC5COC(C)OC5C(O)C3O)C3COC(=O)C23)OCO4)cc(OC)c1O (stereo unspecified) + Cc1cccc(N(C)C(=O)C2C(O)CCN2c2nc(C)cc(C(F)(F)F)c2C#N)c1 . 97

Complete the entry with viability, T/C for C=CCn1c(=O)c2cnc(Nc3ccc(N4CCN(C)CC4)cc3)nc2n1-c1cccc(C(C)(C)O)n1 + Nc1ccc(C#CCN(C(=O)Cc2ncc(C(F)(F)F)cc2C(F)(F)F)c2ccc(F)cc2)nn1 96.9

Answer with the recorded viability, T/C for the compound listed here: O=C(Nc1ccc(O)c(NS(=O)(=O)c2ccc(F)cc2)c1)c1ccc(-c2ccccc2)cc1 + COC1C(OC(N)=O)C(O)C(Oc2ccc3c(O)c(NC(=O)c4ccc(O)c(CC=C(C)C)c4)c(=O)oc3c2C)OC1(C)C 107

Please report the measured viability, T/C for CCc1cc2c(N3CCc4c(cc(Cn5ccnc5)cc4-c4cn(C)nc4C(F)(F)F)C3=O)ccnc2c(OC)n1 + Nc1ccc(C#CCN(C(=O)Cc2ncc(C(F)(F)F)cc2C(F)(F)F)c2ccc(F)cc2)nn1 98.9

For the compound O=C(Nc1ccc(O)c(NS(=O)(=O)c2ccc(F)cc2)c1)c1ccc(-c2ccccc2)cc1 + Cc1cccc(N(C)C(=O)C2C(O)CCN2c2nc(C)cc(C(F)(F)F)c2C#N)c1 , give its measured viability, T/C value. 125

Tell me measured viability, T/C for CC(C)n1c(=O)n(C)c2cnc3cc(F)c(-c4ccc(OCCCN5CCCCC5)nc4)cc3c21 + COC1C(OC(N)=O)C(O)C(Oc2ccc3c(O)c(NC(=O)c4ccc(O)c(CC=C(C)C)c4)c(=O)oc3c2C)OC1(C)C please. 104

Give the measured viability, T/C for O=C(c1cc(Cc2n[nH]c(=O)c3ccccc23)ccc1F)N1CCN(C(=O)C2CC2)CC1 + Cc1cccc(N(C)C(=O)C2C(O)CCN2c2nc(C)cc(C(F)(F)F)c2C#N)c1 109

Tell me its viability, T/C given CC1COCCN1c1cc(C2(S(C)(=N)=O)CC2)nc(-c2ccnc3[nH]ccc23)n1 (stereo unspecified) + Nc1ccc(C#CCN(C(=O)Cc2ncc(C(F)(F)F)cc2C(F)(F)F)c2ccc(F)cc2)nn1 as the entry. 97.7
